B1: PPFIA4 (parent)
chain: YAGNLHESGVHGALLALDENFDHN

- Variants of: B1
- experiment description: protein stability index of a GFP-peptide fusion (GPS, HEK-293T) (PSI 1-6); higher = more stable;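 also: lentivirally expressed fusions sorted by FACS into six bins by GFP to DsRed ratio, PSI derived from sequencing read proportions per bin multiplied by bin number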
- condition: c terminus: a fixed tail appended
Classification field: enter t for protein stability index values not below 3, f for values below it.

Worked cases, answers included:
biopolymer sequence	class
YAGNLHESGVHGGLLALDENFDHN [A13G]	f
YAGNLHESPVHGALLALDENFDHN [G9P]	t
YAGNLHESGWHGALLALDENFDHN [V10W]	f
YAGNLHESGVHGAKLALDENFDHN [L14K]	t

**Q:** Can YAGNLHESGVHGAWLALDENFDHN [L14W] be said to have protein stability index at or above 3?
**A:** f

**Q:** Can YAGNLHESGVHGALLALDENFFHN [D22F] be said to have protein stability index at or above 3?
**A:** f
